# System tested: HLA-A*02:01 (Homo sapiens, UniProt P04439, D140Y/D185E/D98H/E176V/E277Q/G131W/G231S/I119V/I121R/I166T/I218V/L300P/L318F/N151K/N90K/P208A/P217A/Q86G/Q94H/R138H/R169H/T345S)
# Test: MHC binding assay (UV-ligand exchange, β2m ELISA, peptide exchange yield)
# Test settings: binding to HLA-A*02:01 ranged by peptide exchange yield (UV-ligand exchange, β2m ELISA)
Readout name: Peptide exchange

>>> print(df.to_string())
                                   substance  experimental_value
 0  124 (QIDGTLSTI; listed as Homo sapiens) [compound 124]     +++ (>50 = +++)
 1  43 (FLIESKLLSL; listed as Homo sapiens) [compound 43]  ++++ (>75% = ++++)
 2  76 (AVVSSVNTV; listed as Homo sapiens) [compound 76]     +++ (>50 = +++)
 3  66 (SLWEENQAL; listed as Homo sapiens) [compound 66]     +++ (>50 = +++)
 4  139 (LLYPTEITV; listed as Homo sapiens) [compound 139]     +++ (>50 = +++)
 5  16 (ILGPQGNTI; listed as Homo sapiens) [compound 16]     +++ (>50 = +++)
 6  20 (YLPDSLTQL; listed as Homo sapiens) [compound 20]  ++++ (>75% = ++++)
 7  142 (FLGENISNFL; listed as Homo sapiens) [compound 142]     +++ (>50 = +++)
 8  94 (ALADGVPVAL; listed as Homo sapiens) [compound 94]     +++ (>50 = +++)
 9  117 (YMLDIFHEVL; listed as Homo sapiens) [compound 117]     +++ (>50 = +++)
10  90 (GMTELYFQL; listed as Homo sapiens) [compound 90]     +++ (>50 = +++)
11  88 (ALASLENHV; listed as Homo sapiens) [compound 88]     +++ (>50 = +++)
12  86 (FLISLIISV; listed as Homo sapiens) [compound 86]     +++ (>50 = +++)
13  56 (ILLRDLPTL; listed as Homo sapiens) [compound 56]     +++ (>50 = +++)
14  50 (VLANRVAVV; listed as Homo sapiens) [compound 50]     +++ (>50 = +++)
15  44 (GLAQDPKSLQL; listed as Homo sapiens) [compound 44]     +++ (>50 = +++)
16  146 (YLARIQGFQV; listed as Homo sapiens) [compound 146]  ++++ (>75% = ++++)
17  148 (TLGVIPESV; listed as Homo sapiens) [compound 148]  ++++ (>75% = ++++)
